# testedTarget: UniProtKB P55072
# Sequence (P55072 whole entry): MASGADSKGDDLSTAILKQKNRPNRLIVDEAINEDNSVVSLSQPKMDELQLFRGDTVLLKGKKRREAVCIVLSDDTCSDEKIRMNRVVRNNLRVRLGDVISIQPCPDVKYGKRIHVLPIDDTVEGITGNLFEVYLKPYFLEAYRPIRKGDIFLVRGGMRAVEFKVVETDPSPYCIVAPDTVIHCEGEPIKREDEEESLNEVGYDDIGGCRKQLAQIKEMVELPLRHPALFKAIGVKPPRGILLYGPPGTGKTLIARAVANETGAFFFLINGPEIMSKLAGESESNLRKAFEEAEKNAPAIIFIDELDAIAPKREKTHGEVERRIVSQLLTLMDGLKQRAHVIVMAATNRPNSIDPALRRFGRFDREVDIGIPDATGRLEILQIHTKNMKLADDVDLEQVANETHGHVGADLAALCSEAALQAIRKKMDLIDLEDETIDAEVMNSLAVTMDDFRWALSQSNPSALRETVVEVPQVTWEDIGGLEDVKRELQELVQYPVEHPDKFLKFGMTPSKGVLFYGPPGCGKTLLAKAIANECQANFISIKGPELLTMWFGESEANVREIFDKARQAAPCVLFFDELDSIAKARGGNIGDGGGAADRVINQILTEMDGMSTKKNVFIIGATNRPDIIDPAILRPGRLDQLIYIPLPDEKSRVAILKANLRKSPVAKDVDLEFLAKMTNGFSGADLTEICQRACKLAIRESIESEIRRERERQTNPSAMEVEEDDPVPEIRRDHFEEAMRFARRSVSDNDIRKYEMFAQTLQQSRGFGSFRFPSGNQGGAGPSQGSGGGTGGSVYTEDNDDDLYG
# assayMethodText: P97 ATPase biochem assay (ADP Glo)
# Format: biochemical
# experimentalSetup: read-out: p97 IC50
Assign IC50 to each entry below.

Which IC50 value is on record for Cc1nc2ccccc2n1-c1nc2c(c(NCc3ccccc3)n1)CCCC2 ?
< 300 nM

Please report the recorded IC50 for COCCOc1cccc2c(NCc3ccccc3)nc(-n3c(OC)cc4c(C#N)cccc43)nc12 .
< 100 nM

Given Cc1cc2ccccc2n1-c1nc2c(c(NCc3ccccc3)n1)COCC2 , state its recorded IC50.
< 300 nM

So what does the record say about IC50 for COc1cc2ccccc2n1-c1nc2c(c(NCc3ccccc3)n1)COCC2 ?
< 300 nM

I have this compound here, CS(=O)(=O)NCc1cc2ccccc2n1-c1nc2c(c(NCc3ccccc3)n1)CCCC2 , and I need its recorded IC50.
< 300 nM

Returns the measured IC50 for the input compound. Input: COc1cc2c(C#N)cccc2n1-c1nc2c(c(NCc3ccccc3)n1)COCC2
< 100 nM

Which IC50 value is on record for COc1cc2ccccc2n1-c1nc2c(c(NCc3ccccc3)n1)CCCC2 ?
< 30 nM

Recorded IC50 for Cc1cc2ccccc2n1-c1nc2c(c(NCc3ccccc3)n1)CN(C(C)C)CC2 , please?
< 300 nM

Reported IC50, compound COCCOc1cccc2c(NCc3ccccc3)nc(-n3c(C)cc4ccccc43)nc12 : ____
< 100 nM

Look at this compound and give its reported IC50. COc1cccc2c(NCc3ccccc3)nc(-n3c(CNC(C)=O)cc4ccccc43)nc12
< 300 nM

Query (compound): COCCOc1cccc2c(NCc3ccccc3)nc(-n3c(C)nc4ccccc43)nc12 ; field requested: IC50
< 300 nM

Could you share which IC50 value was measured for COc1cc2c(C#N)cccc2n1-c1nc2c(c(NCc3ccccc3)n1)CNCC2 ?
< 300 nM

Consider the compound COc1cc2c(C(N)=O)cccc2n1-c1nc2c(c(NCc3ccccc3)n1)COCC2 and give its measured IC50.
< 30 nM

Requested read-out: IC50. Entry: COCCOc1cccc2c(NCc3ccccc3)nc(-n3c(CO)nc4ccccc43)nc12
< 300 nM

Endpoint output: IC50 of Cc1cc2c(Cl)cccc2n1-c1nc2c(c(NCc3ccccc3)n1)CNCC2 . Value?
< 300 nM

Could you tell me which IC50 is on file for OCc1nc2ccccc2n1-c1nc2c(c(NCc3ccccc3)n1)CCCC2 ?
< 300 nM

Give its IC50 value. Item: COCC(=O)N1CCc2nc(-n3c(C)cc4c(C#N)cccc43)nc(NCc3ccccc3)c2C1
< 30 nM

What does the data say about its IC50? Entry: Cc1nc2c(C#N)cccc2n1-c1nc2c(c(NCc3ccccc3)n1)CCCC2
< 100 nM

Find the recorded IC50 belonging to COc1cccc2c(NCc3ccccc3)nc(-n3c(/C=C\C#N)cc4ccccc43)nc12 and report it.
< 300 nM

Requested read-out: IC50. Entry: COc1cccc2c(NCc3ccccc3)nc(-n3c(/C=C/S(C)(=O)=O)cc4ccccc43)nc12
< 300 nM

Look up IC50: Cc1cc2c(C#N)cccc2n1-c1nc2c(c(NCc3ccccc3)n1)CCCC2
< 100 nM
